For PC-3, measured CC50 is reported for the entries below.
assay readout: CC50

{"compound": "C=C1C(=O)O[C@H]2[C@H]1CC/C(COC(=O)NC)=C\\CC[C@@]1(C)O[C@@H]21 [JVM 2-57]", "result": "71.1 µM"}
{"compound": "C=C1C(=O)O[C@H]2[C@H]1CC/C(COC(=O)NCCO)=C\\CC[C@@]1(C)O[C@@H]21 [JVM 2-50]", "result": "> 100 µM"}
{"compound": "C=C1C(=O)O[C@H]2[C@H]1CC/C(COC(=O)N1CCN(C)CC1)=C\\CC[C@@]1(C)O[C@@H]21 [JVM 2-44]", "result": "> 100 µM"}
{"compound": "C=C1C(=O)O[C@H]2[C@H]1CC/C(COC(=O)NCCN1CCCCC1)=C\\CC[C@@]1(C)O[C@@H]21 [JVM 2-13]", "result": "70.9 µM"}
{"compound": "C=C1C(=O)O[C@H]2[C@H]1CC/C(COC(=O)CCC(=O)N1CCC(C)CC1)=C\\CC[C@@]1(C)O[C@@H]21 [JVM 2-70]", "result": "69.1 µM"}
{"compound": "C=C1C(=O)O[C@H]2[C@H]1CC/C(COC(=O)N1CCC(F)(F)CC1)=C\\CC[C@@]1(C)O[C@@H]21 [JVM 2-66]", "result": "53.8 µM"}
